Test system: Streptococcus pyogenes 930
Assay: in vitro antibacterial MIC, agar dilution
Type: cell-based
Conditions: organism code MM; 35-37° C., 20 to 24 hours; unit assumed
Can you tell me MIC for the items I'm about to list?

molecule: CC[C@H]1OC(=O)[C@H](C)C(=O)[C@H](C)[C@@H](O[C@@H]2O[C@H](C)C[C@H](N(C)C)[C@H]2O)[C@@]2(C)C[C@@H](C)C(=O)[C@H](C)[C@H]3N(CCNC(=O)c4ccccc4C=CCO2)C(=O)O[C@]13C
MIC: > 100 µg/mL

We now examine a further molecule.
Complete the entry with MIC for CC[C@H]1OC(=O)[C@H](C)[C@@H](O[C@H]2C[C@@](C)(OC)[C@@H](O)[C@H](C)O2)[C@H](C)[C@@H](O[C@@H]2O[C@H](C)C[C@H](N(C)C)[C@H]2O)[C@](C)(O)C[C@@H](C)C(=O)[C@H](C)[C@@H](O)[C@]1(C)O [Ery. A, Erythromycin A, reference compound]
> 100 µg/mL

Sourced from patent US6046171A
